Biological target: KOR (Homo sapiens, UniProt P41145)
Sequence (P41145 whole entry): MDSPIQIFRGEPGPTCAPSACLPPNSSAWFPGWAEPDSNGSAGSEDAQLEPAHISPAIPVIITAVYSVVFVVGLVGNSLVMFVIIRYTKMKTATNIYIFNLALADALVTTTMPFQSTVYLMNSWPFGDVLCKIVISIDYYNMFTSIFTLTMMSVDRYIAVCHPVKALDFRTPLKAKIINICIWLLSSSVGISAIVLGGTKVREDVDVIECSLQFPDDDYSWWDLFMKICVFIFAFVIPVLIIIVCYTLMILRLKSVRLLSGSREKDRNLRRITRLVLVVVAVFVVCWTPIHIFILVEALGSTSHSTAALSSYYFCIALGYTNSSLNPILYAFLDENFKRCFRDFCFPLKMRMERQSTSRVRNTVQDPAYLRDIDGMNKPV
Assay: [35S]GTPγS binding functional agonist assay on membranes of CHO cells expressing hKOR (reference agonist U69593)
Type: biochemical
Set-up: expressed in transfected cells; host or cells: CHO cells, stably transfected; crude membrane fractions
Conditions: test compound at 10 micromolar; N=4; reference agonist = 100%; CHO-cell line expressing hKOR
Quantity Kind: KOR agonist (average percent efficacy relative to cognate agonist) (%)
Response body: numeric value in %, unit text excluded.

Entry COc1ccc(CNC(=O)[C@@H]2CC=C[C@@H]3CCN(C4CC4)C(=O)[C@@H]32)cc1 (racemic) : reported KOR agonist (average percent efficacy relative to cognate agonist) = ?
5.4

Also need O=C(Nc1ccccc1)[C@@H]1CC=C[C@@H]2CCN(Cc3ccc(Cl)c(Cl)c3)C(=O)[C@@H]21 (racemic) , thanks.
79

Also need COc1ccc(CNC(=O)[C@@H]2CC=C[C@@H]3CCN(Cc4ccc(OC)c(OC)c4)C(=O)[C@@H]32)cc1 (racemic) , thanks.
3.6

Also need O=C(Nc1ccc(Cl)c(C(F)(F)F)c1)[C@@H]1CC=C[C@@H]2CCN(C3CC3)C(=O)[C@@H]21 (racemic) , thanks.
66.4

Also need COc1ccc(NC(=O)[C@@H]2CC=C[C@@H]3CCN(Cc4ccccc4)C(=O)[C@@H]32)cc1 (racemic) , thanks.
72.9

Also need CCCCN1CC[C@H]2C=CC[C@@H](C(=O)Nc3ccc(OC)cc3)[C@H]2C1=O (racemic) , thanks.
23.5

Also need O=C([C@@H]1CC=C[C@@H]2CCN(C3CC3)C(=O)[C@@H]21)N1CCN(c2ccccc2)CC1 (racemic) , thanks.
27.5

Also need CCCCN1CC[C@H]2C=CC[C@@H](C(=O)NCCc3ccccc3)[C@H]2C1=O (racemic) , thanks.
12.6

Also need O=C(NCc1cccnc1)[C@@H]1CC=C[C@@H]2CCN(Cc3ccc(Cl)c(Cl)c3)C(=O)[C@@H]21 (racemic) , thanks.
74.6

Also need O=C(NCCc1ccccc1)[C@@H]1CC=C[C@@H]2CCN(Cc3ccccc3)C(=O)[C@@H]21 (racemic) , thanks.
110.6

Also need CCCCN1CC[C@H]2C=CC[C@@H](C(=O)N3CCN(c4ccccc4)CC3)[C@H]2C1=O (racemic) , thanks.
9.9

Also need O=C(Nc1ccc(Cl)cc1Cl)[C@@H]1CC=C[C@@H]2CCN(Cc3ccc(Cl)c(Cl)c3)C(=O)[C@@H]21 (racemic) , thanks.
23.2

Also need CCCCN1CC[C@H]2C=CC[C@@H](C(=O)NCc3ccc(OC)cc3)[C@H]2C1=O (racemic) , thanks.
8.7

Also need O=C(Nc1ccccc1)[C@@H]1CC=C[C@@H]2CCN(C3CC3)C(=O)[C@@H]21 (racemic) , thanks.
21.8

Also need O=C(NC1CCCCC1)[C@@H]1CC=C[C@@H]2CCN(C3CC3)C(=O)[C@@H]21 (racemic) , thanks.
4.1

Also need O=C1[C@H]2[C@H](C=CC[C@H]2C(=O)N2CCN(c3ccccc3)CC2)CCN1Cc1ccccc1 (racemic) , thanks.
8

Also need CCCCNC(=O)[C@@H]1CC=C[C@@H]2CCN(CCCC)C(=O)[C@@H]21 (racemic) , thanks.
40.3

Also need CCCCN1CC[C@H]2C=CC[C@@H](C(=O)Nc3ccccc3)[C@H]2C1=O (racemic) , thanks.
112.1

Also need O=C(NCc1cccnc1)[C@@H]1CC=C[C@@H]2CCN(C3CC3)C(=O)[C@@H]21 (racemic) , thanks.
4

Also need COc1ccc(NC(=O)[C@@H]2CC=C[C@@H]3CCN(C4CCCCC4)C(=O)[C@@H]32)cc1 (racemic) , thanks.
54.3

Also need O=C(Nc1ccc(Cl)cc1Cl)[C@@H]1CC=C[C@@H]2CCN(C3CC3)C(=O)[C@@H]21 (racemic) , thanks.
29.6

Also need O=C(Nc1ccc(Cl)c(C(F)(F)F)c1)[C@@H]1CC=C[C@@H]2CCN(Cc3ccc(Cl)c(Cl)c3)C(=O)[C@@H]21 (racemic) , thanks.
33.1

Also need COc1ccc(CN2CC[C@H]3C=CC[C@@H](C(=O)Nc4ccc(Cl)cc4Cl)[C@H]3C2=O)cc1OC (racemic) , thanks.
−2.6

Also need O=C([C@@H]1CC=C[C@@H]2CCN(C3CC3)C(=O)[C@@H]21)N1CCOCC1 (racemic) , thanks.
7.8

Also need O=C(NCc1cccnc1)[C@@H]1CC=C[C@@H]2CCN(C3CCCCC3)C(=O)[C@@H]21 (racemic) , thanks.
67.7

Also need COc1ccc(CNC(=O)[C@@H]2CC=C[C@@H]3CCN(Cc4ccc(Cl)c(Cl)c4)C(=O)[C@@H]32)cc1 (racemic) , thanks.
17.7

Also need O=C(Nc1ccccc1)[C@@H]1CC=C[C@@H]2CCN(C3CCCCC3)C(=O)[C@@H]21 (racemic) , thanks.
133.7
